STUDY_SYSTEM: CAIX-expressing human HT-29 colorectal cancer cells (Homo sapiens, UniProt Q16790)
Construct: CAIX-expressing human HT-29 colorectal cancer cells; host or cells: HT-29 human colorectal cancer cells
PROTOCOL_DETAILS: FACS binding assay (IC50 determination, competition with tracer 3BP-2776 or 3BP-4149)
MEASUREMENT_PARAMETERS: FACS competition on HT-29 cells, Tracer ID 3BP-2776 (10 nM, biotin-labeled), 4° C., 1 hour; read-out: pIC50 category (activity) (converted)
Starred links: 1 amine or outer side, 2 acyl side, 3 side chain; linkers in the order of their positions; H or OH if unused. Positions of bridges follow the written chain, without caps; N, C: chain ends. Non-standard residues stand in square brackets, D forms with d. Residues, ends and D or L forms follow the SMILES beside them. mXylylene = c1cc(C[*:1])cc(C[*:2])c1; Bta = N[C@@H](Cc1csc2ccccc12)C(=O)O; tBuAla = CC(C)(C)C[C@H](N)C(=O)O; Sar = CNCC(=O)O

[
  {
    "COMPOUND": "CSCC[C@H](NC(C)=O)C(=O)N[C@H](C(=O)N[C@@H](Cc1ccc(O)cc1)C(=O)N[C@H]1CSCc2cccc(c2)CSC[C@@H](C(N)=O)NC(=O)[C@H](CCC(N)=O)NC(=O)[C@H](Cc2c[nH]c3ccccc23)NC(=O)[C@H]([C@@H](C)O)NC(=O)[C@H](CC(C)C)NC(=O)[C@H](Cc2c[nH]c3ccccc23)NC(=O)[C@H](CC(=O)O)NC(=O)CNC(=O)[C@H](CCC(=O)O)NC1=O)C(C)C [3BP-2836] (Ac-MVYCEGDWLTWQC-NH2; linker 4-13 via mXylylene)",
    "IC50": "0.1 to 0.794 µM"
  },
  {
    "COMPOUND": "CC(=O)N[C@H](C(=O)N[C@@H](Cc1ccc(O)cc1)C(=O)N[C@H]1CSCc2cccc(c2)CSC[C@@H](C(N)=O)NC(=O)[C@H](CCC(N)=O)NC(=O)[C@H](Cc2c[nH]c3ccccc23)NC(=O)[C@H]([C@@H](C)O)NC(=O)[C@H](CC(C)C)NC(=O)[C@H](Cc2csc3ccccc23)NC(=O)[C@H](CC(=O)O)NC(=O)CN(C)C(=O)[C@H](CCC(=O)O)NC1=O)C(C)C [3BP-3311] (Ac-VYCE[Sar]D[Bta]LTWQC-NH2; linker 3-12 via mXylylene)",
    "IC50": "< 0.01 µM"
  },
  {
    "COMPOUND": "CC(=O)N[C@H](C(=O)N[C@@H](Cc1ccc(O)cc1)C(=O)N[C@H]1CSCc2cccc(c2)CSC[C@@H](C(N)=O)NC(=O)[C@H](CCC(N)=O)NC(=O)[C@H](Cc2c[nH]c3ccccc23)NC(=O)[C@H]([C@@H](C)O)NC(=O)[C@H](CC(C)C)NC(=O)[C@H](Cc2c[nH]c3ccccc23)NC(=O)[C@H](CC(=O)O)NC(=O)[C@@H](C)NC(=O)[C@H](CCC(=O)O)NC1=O)C(C)C [3BP-3046] (Ac-VYCE[dA]DWLTWQC-NH2; linker 3-12 via mXylylene)",
    "IC50": "< 0.01 µM"
  },
  {
    "COMPOUND": "CC(=O)N[C@@H](CO)C(=O)N[C@@H](Cc1ccc(O)cc1)C(=O)N[C@H]1CSCc2cccc(c2)CSC[C@@H](C(N)=O)NC(=O)[C@H](CO)NC(=O)[C@H](Cc2c[nH]c3ccccc23)NC(=O)[C@H]([C@@H](C)O)NC(=O)[C@H](CC(C)C)NC(=O)[C@H](Cc2c[nH]c3ccccc23)NC(=O)[C@H](CC(=O)O)NC(=O)[C@H]2CCCN2C(=O)[C@H](CCC(=O)O)NC1=O [3BP-3566] (Ac-SYCE[dP]DWLTWSC-NH2; linker 3-12 via mXylylene)",
    "IC50": "< 0.01 µM"
  },
  {
    "COMPOUND": "CC(=O)N[C@H](C(=O)N[C@@H](Cc1ccc(O)cc1)C(=O)N[C@H]1CSCc2cccc(c2)CSC[C@@H](C(N)=O)NC(=O)[C@H](CO)NC(=O)[C@H](Cc2c[nH]c3ccccc23)NC(=O)[C@H]([C@@H](C)O)NC(=O)[C@H](CC(C)(C)C)NC(=O)[C@H](Cc2c[nH]c3ccccc23)NC(=O)[C@H](CC(=O)O)NC(=O)[C@H]2CCCN2C(=O)[C@H](CCC(=O)O)NC1=O)C(C)C [3BP-3491] (Ac-VYCE[dP]DW[tBuAla]TWSC-NH2; linker 3-12 via mXylylene)",
    "IC50": "< 0.01 µM"
  }
]

====

STUDY_SYSTEM: human carbonic anhydrase IX (hCAIX-Fc) (Homo sapiens, UniProt Q16790)
Construct: purchased SinoBliological (Sino Biological) 10107-H02H
PROTOCOL_DETAILS: Surface plasmon resonance assay with hCAIX-Fc
Assay type: binding
MEASUREMENT_PARAMETERS: SPR dissociation half-life, hCAIX-Fc, 25° C.
Protocol: Surface plasmon resonance (SPR) studies were performed using a Biacore™ T200 SPR system (GE Healthcare Life Sciences). Briefly, polarized light is directed towards a gold-labeled sensor surface, and minimum intensity reflected light is detected. […] For each test compound, SPR raw data in the form of resonance units (RU) were plotted as sensorgrams using the Biacore™ T200 control software. […] The pKD value (negative decadic logarithm of dissociation constant) was calculated in the IDBS excel template.
Starred links: 1 amine or outer side, 2 acyl side, 3 side chain; linkers in the order of their positions; H or OH if unused. Positions of bridges follow the written chain, without caps; N, C: chain ends. Non-standard residues stand in square brackets, D forms with d. Residues, ends and D or L forms follow the SMILES beside them. *: point of attachment. DOTA = O=C(O)CN1CCN(CC(=O)O)CCN(CC(=O)*)CCN(CC(=O)O)CC1; mXylylene = c1cc(C[*:1])cc(C[*:2])c1; X2 = O=C(CN1CCC(N[*:1])CC1)[*:2]; Dap = NC[C@H](N)C(=O)O
ENDPOINT_NAME: t1/2 category (activity)

[
  {
    "COMPOUND": "CC(C)C[C@@H]1NC(=O)[C@H](Cc2c[nH]c3ccccc23)NC(=O)[C@H](CC(N)=O)NC(=O)[C@H]2CCCN2C(=O)[C@H](CCC(=O)O)NC(=O)[C@@H](NC(=O)[C@H](Cc2ccc(O)cc2)NC(=O)[C@@H](NC(=O)CN2CCC(NC(=O)CN3CCN(CC(=O)O)CCN(CC(=O)O)CCN(CC(=O)O)CC3)CC2)C(C)C)CSCc2cccc(c2)CSC[C@@H](C(N)=O)NC(=O)[C@H](CO)NC(=O)[C@H](Cc2c[nH]c3ccccc23)NC(=O)[C@H]([C@@H](C)O)NC1=O [3BP-4103] ({DOTA}-[X2]VYCE[dP]NWLTWSC-NH2; linker 4-13 via mXylylene)",
    "OBSERVED_VALUE": "A (t1/2>15.0 minutes)"
  },
  {
    "COMPOUND": "CC(C)C[C@@H]1NC(=O)[C@H](Cc2c[nH]c3ccccc23)NC(=O)[C@H](CC(=O)O)NC(=O)[C@H]2CCCN2C(=O)[C@H](CCC(=O)O)NC(=O)[C@@H]2CSCc3cccc(c3)CSC[C@@H](C(N)=O)NC(=O)[C@H](CNC(=O)C[C@H](NC(=O)[C@@H](NC(=O)CN3CCN(CC(=O)O)CCN(CC(=O)O)CCN(CC(=O)O)CC3)C(C)C)C(=O)N2)NC(=O)[C@H](Cc2c[nH]c3ccccc23)NC(=O)[C@H]([C@@H](C)O)NC1=O [3BP-4264] ({DOTA}-VDCE[dP]DWLTW[Dap]C-NH2; lactam 2-11; linker 3-12 via mXylylene)",
    "OBSERVED_VALUE": "A (t1/2>15.0 minutes)"
  },
  {
    "COMPOUND": "CC(=O)N[C@H](C(=O)N[C@@H](Cc1ccc(O)cc1)C(=O)N[C@H]1CSCc2cccc(c2)CSC[C@@H](C(N)=O)NC(=O)[C@H](C)NC(=O)[C@H](Cc2c[nH]c3ccccc23)NC(=O)[C@H]([C@@H](C)O)NC(=O)[C@H](CC(C)C)NC(=O)[C@H](Cc2c[nH]c3ccccc23)NC(=O)[C@H](CC(=O)O)NC(=O)[C@H]2CCCN2C(=O)[C@H](CCC(=O)O)NC1=O)C(C)C [3BP-3282] (Ac-VYCE[dP]DWLTWAC-NH2; linker 3-12 via mXylylene)",
    "OBSERVED_VALUE": "A (t1/2>15.0 minutes)"
  }
]

====

PROTOCOL_DETAILS: Dose range finding study by intravenous route with toxicokinetics
Assay type: in vivo, beagle dogs
MEASUREMENT_PARAMETERS: male, beagle, dog, plasma, iv; Day 9; 0.4 mg/kg i.v.; mean n = 2
Experimental: The following parameters and endpoints were evaluated: mortality, clinical observations, body weights, food consumption, local reactions, clinical pathology parameters (hematology, coagulation, and clinical chemistry), organ weights, and macroscopic examinations. Both animals were sampled for toxicokinetics (TK) on each dosing occasion (i.e., on day 1, day 5, day 9 and day 13) at: pre-dose, 15 min, 30 min, 1 h, 6 h and 24 h. Blood samples were collected in K2EDTA tubes. […]

[
  {
    "COMPOUND": "CC(C)C[C@@H]1NC(=O)[C@H](Cc2cccc(NC(=O)CCCS(N)(=O)=O)c2)NC(=O)[C@H](CC(=O)O)NC(=O)[C@H]2CCCN2C(=O)[C@H](CCC(=O)O)NC(=O)[C@@H](NC(=O)[C@H](CCC(N)=O)NC(=O)CN2CCN(C(=O)CN3CCN(CC(=O)O)CCN(CC(=O)O)CCN(CC(=O)O)CC3)CC2)CSCc2cccc(c2)CSC[C@@H](C(N)=O)NC(=O)[C@H](CO)NC(=O)[C@H](Cc2c[nH]c3ccccc23)NC(=O)[C@H]([C@@H](C)O)NC1=O [DPI-4452]",
    "clearance": "6.83 mL/min/kg"
  }
]
